# System: Trypanosoma brucei brucei
# Assay Procedure: Antimicrobial activity against bloodstream forms of Trypanosoma brucei brucei overexpressing type I nitroreductase assessed as reduction in cell viability after 3 days by alamar blue assay in presence of tetracycline
# Format: functional, organism-based
# Assay Context: 72 h
Threshold check on IC50: strictly below 600 nM is YES; on or above 600 nM is NO.

Determine if O=C(Cn1cnc([N+](=O)[O-])n1)N1CCN(c2ccc(C(F)(F)F)cc2)CC1 shows IC50 strictly lower than 600 nM. NO

Please determine if O=C(Cn1cnc([N+](=O)[O-])n1)N1CCN(Cc2ccc(Cl)c(Cl)c2)CC1 is below 600 nM in terms of IC50. YES

hey, is IC50 for O=C(Cn1cnc([N+](=O)[O-])n1)N1CCN(c2ccc(Cl)c(Cl)c2)CC1 lower than 600 nM or not? NO

Here's an entry: O=C(Cn1cnc([N+](=O)[O-])n1)N1CCN(Cc2ccc(C(F)(F)F)cc2)CC1 . Is its IC50 below 600 nM? NO

Hello, I'm reviewing records and need to know if IC50 of O=C(Cn1cnc([N+](=O)[O-])n1)N1CCN(C(c2ccccc2)c2ccc(Cl)cc2)CC1 (stereo not given) is below 600 nM. Could you check? NO

* * *

# Assay Procedure: Selectivity index, ratio of IC50 for rat L6 cells to IC50 for amastigote forms of Trypanosoma cruzi Tulahuen C4
# Assay Context: L6 cells
Classification field: enter fulfilled for selectivity ratio values not below 20, not fulfilled for values below it.

Can Cc1ccc(N2CCN(CC(=O)N3CCN(c4ccc(C)cc4)CC3)CC2)cc1 be said to have selectivity ratio at or above 20? not fulfilled

Would you say O=C(Cn1ccnc1[N+](=O)[O-])N1CCN(c2ncccn2)CC1 shows selectivity ratio at minimum 20? not fulfilled

Is the recorded value of selectivity ratio equal to or greater than 20 for this compound? O=C(CN1CCN(c2ccc(Cl)cc2)CC1)N1CCN(c2ccc(Cl)cc2)CC1 not fulfilled

Given the entry O=C(Cn1cnc([N+](=O)[O-])n1)N1CCN(c2ccc(C(F)(F)F)cc2)CC1 , answer whether its selectivity ratio meets or surpasses 20. fulfilled

Check if selectivity ratio >= 20 (inclusive). Item: O=C(Cn1cnc([N+](=O)[O-])n1)N1CCN(c2ccc(Cl)c(Cl)c2)CC1 fulfilled

Could you tell me if the measured selectivity ratio of Cc1ccc(N2CCN(C(=O)Cn3cnc([N+](=O)[O-])n3)CC2)cc1 reaches 20 or more? fulfilled

* * *

# Test system: Leishmania donovani
# Assay Procedure: Antileishmanial activity against axenic amastigote forms of Leishmania donovani MHOM/ET/67/L82 assessed as inhibition of growth
# Type: functional, organism-based
Provide the recorded pIC50 for the entries that follow.
The value called pIC50 is obtained by taking minus log10 of the concentration in mol/L.

Can you look up the measured pIC50 of O=C(Cn1cnc([N+](=O)[O-])n1)N1CCN(c2ccc(C(F)(F)F)cc2)CC1 for me? 5.73

pIC50 lookup needed for N#Cc1ccccc1N1CCN(C(=O)Cn2cnc([N+](=O)[O-])n2)CC1 , thanks. 4.84

Quick check: pIC50 of O=C(Cn1ccnc1[N+](=O)[O-])N1CCN(c2ncccn2)CC1 ? 3.88

Param item = O=C(Cn1cnc([N+](=O)[O-])n1)N1CCN(Cc2ccc(C(F)(F)F)cc2)CC1 ; retrieve measured pIC50. 5.01

Using the record for O=C(Cn1cnc([N+](=O)[O-])n1)N1CCN(C(c2ccccc2)c2ccc(Cl)cc2)CC1 (stereo not drawn) , report its pIC50. 5.84

Fill in the blank: the reported pIC50 of Cc1ccc(N2CCN(C(=O)Cn3cnc([N+](=O)[O-])n3)CC2)cc1 is ____. 4.97

Reported pIC50 for O=C(Cn1cnc([N+](=O)[O-])n1)N1CCN(C(=O)C2CC2)CC1 : what is it? 4.51

What measured pIC50 goes with O=C(Cn1cnc([N+](=O)[O-])n1)N1CCN(c2ncccn2)CC1 ? 4.64

* * *

# System: Trypanosoma brucei brucei
# Assay Procedure: Ratio of IC50 for bloodstream forms of Trypanosoma brucei brucei overexpressing type I nitroreductase in absence of tetracycline to IC50 for bloodstream forms of Trypanosoma brucei brucei overexpressing type I nitroreductase in presence of tetracycline
# Assay type: functional
Readout: Ratio IC50
// response body must contain only the number

Request: Ratio IC50, test system Trypanosoma brucei brucei, entry O=C(Cn1cnc([N+](=O)[O-])n1)N1CCN(Cc2ccc(Cl)c(Cl)c2)CC1 7.2

Identify the measured Ratio IC50 of O=C(Cn1cnc([N+](=O)[O-])n1)N1CCN(C(c2ccccc2)c2ccc(Cl)cc2)CC1 (centres undefined) for Trypanosoma brucei brucei. 3.7

Checklist item: Ratio IC50 tested on Trypanosoma brucei brucei, entry O=C(Cn1cnc([N+](=O)[O-])n1)N1CCN(c2ccc(C(F)(F)F)cc2)CC1 , value? 16

Give recorded Ratio IC50 with Trypanosoma brucei brucei for the following compound: O=C(Cn1cnc([N+](=O)[O-])n1)N1CCN(c2ccc(Cl)c(Cl)c2)CC1 12.3

* * *

# Assay Procedure: Selectivity index, ratio of IC50 for rat L6 cells to IC50 for bloodstream trypomastigote forms of Trypanosoma brucei rhodesiense STIB 900
# Assay Context: l6
Readout: selectivity ratio
Respond with the number and no other words.

Find the recorded selectivity ratio belonging to O=C(Cn1cnc([N+](=O)[O-])n1)N1CCN(Cc2ccc(Cl)c(Cl)c2)CC1 and report it. 260

* * *

# Assay Procedure: Efflux ratio of permeability from basolateral to apical side over apical to basolateral side in human Caco2 cells after 2 hrs by LC-MS/MS method
# Assay Context: Caco-2
Readout: efflux ratio at 2 h

Report efflux ratio at 2 h for O=C(Cn1cnc([N+](=O)[O-])n1)N1CCN(Cc2ccc(Cl)c(Cl)c2)CC1 please. 0.91

* * *

# System: Leishmania donovani
# Assay Procedure: Antileishmanial activity against axenic amastigote forms of Leishmania donovani MHOM/ET/67/L82 assessed as inhibition of growth
# Assay type: functional, organism-based
Readout: pIC50
Notebook: values listed as pIC50 are -log10 of the concentration (mol/L).

Which measured pIC50 value corresponds to Cc1ccc(N2CCN(CC(=O)N3CCN(c4ccc(C)cc4)CC3)CC2)cc1 ? 4.62

Record request: pIC50 value, item O=C(CN1CCN(c2ccc(C(F)(F)F)cc2)CC1)N1CCN(c2ccc(C(F)(F)F)cc2)CC1 5.30

Value lookup for pIC50; key = COc1ccc(N2CCN(C(=O)Cn3cnc([N+](=O)[O-])n3)CC2)cc1 4.73

# pIC50 lookup, item O=C(CN1CCN(c2ccc(Cl)cc2)CC1)N1CCN(c2ccc(Cl)cc2)CC1 4.74

Record request: pIC50 value, item O=C(Cn1cnc([N+](=O)[O-])n1)N1CCN(c2ccc(Cl)cc2)CC1 5.03

* * *

# Assay Procedure: Selectivity index, ratio of IC50 for rat L6 cells to IC50 for bloodstream trypomastigote forms of Trypanosoma brucei rhodesiense STIB 900
# Assay Context: L6 cells
Would you mind sorting the entries by selectivity ratio according to these classes? bin A: < 6; bin B: ≥ 6 and < 10; bin C: ≥ 10

Bin this entry: Cc1ccc(N2CCN(C(=O)Cn3cnc([N+](=O)[O-])n3)CC2)cc1 bin C

Could you tell me which band Cc1ccc(N2CCN(CC(=O)N3CCN(c4ccc(C)cc4)CC3)CC2)cc1 belongs to? bin B

Class label required: O=C(CN1CCN(c2ccc(C(F)(F)F)cc2)CC1)N1CCN(c2ccc(C(F)(F)F)cc2)CC1 bin A

For this compound, which bin applies? O=C(Cn1cnc([N+](=O)[O-])n1)N1CCN(c2ncccn2)CC1 bin A

Into which bin does this compound go? O=C(Cn1cnc([N+](=O)[O-])n1)N1CCN(C(c2ccccc2)c2ccc(Cl)cc2)CC1 (stereo unspecified) bin B

Into which bin does this compound go? O=C(Cn1cnc([N+](=O)[O-])n1)N1CCN(c2ccccn2)CC1 bin B

Exercise: read the entry COc1ccc(N2CCN(C(=O)Cn3cnc([N+](=O)[O-])n3)CC2)cc1 and state which class it falls under. bin B

Into which bin does this compound go? O=C(CN1CCN(c2ccc(Cl)c(Cl)c2)CC1)N1CCN(c2ccc(Cl)c(Cl)c2)CC1 bin A

Bin this entry: O=C(Cn1cnc([N+](=O)[O-])n1)N1CCN(c2ccc(Cl)c(Cl)c2)CC1 bin C

For O=C(Cn1cnc([N+](=O)[O-])n1)N1CCN(C(=O)C2CC2)CC1 , which selectivity ratio bin applies? bin A

In plain terms, what class is N#Cc1ccccc1N1CCN(C(=O)Cn2cnc([N+](=O)[O-])n2)CC1 ? bin C

Lab note: which band did O=C(Cn1ccnc1[N+](=O)[O-])N1CCN(c2ncccn2)CC1 land in? bin A

Hi, small favor: classify O=C(Cn1cnc([N+](=O)[O-])n1)N1CCN(c2ccc(C(F)(F)F)cc2)CC1 by its selectivity ratio when you get a moment. bin C

Lab note: which band did O=C(CN1CCN(c2ccc(Cl)cc2)CC1)N1CCN(c2ccc(Cl)cc2)CC1 land in? bin B

From: ChEMBL document CHEMBL3632593
